- measured.target: FKBP12 (Homo sapiens, UniProt P62942)
- Sequence (P62942 whole entry, species assumed): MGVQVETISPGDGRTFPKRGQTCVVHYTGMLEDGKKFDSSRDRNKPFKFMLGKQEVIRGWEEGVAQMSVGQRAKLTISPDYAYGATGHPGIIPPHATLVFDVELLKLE
- protocol: Fluorescence Polarization (FP) Assay of FKBP12 Binding
- experimental.setup: Table 1; 1 μM compound; 100 nM fluorescent ligand, 200 nM FKBP12; read-out: % FP inhibition at 1 μM

molecule: COc1cc(C(F)(F)C(=O)N2C3CCC2C(=O)N(CCCc2ccccc2)C3)cc(OC)c1OC (stereo not shown) [Example 27]
measured.target: FKBP12 (Homo sapiens, UniProt P62942)
inhibition at 1 µM: 22%
--
molecule: COc1ccc(CCCN2CC3CCC(C2=O)N3C(=O)C(F)(F)c2cc(OC)c(OC)c(OC)c2)cc1OC (stereo not shown) [Example 28]
measured.target: FKBP12 (Homo sapiens, UniProt P62942)
inhibition at 1 µM: 13%
--
molecule: CCC(C)(C)C(=O)C(=O)N1C2CCCC1C(=O)N(CCCc1cc(OC)c(OC)c(OC)c1)C2 (stereo not shown) [Example 41]
measured.target: FKBP12 (Homo sapiens, UniProt P62942)
inhibition at 1 µM: 4%
--
molecule: COc1cc(C(=O)C(=O)N2[C@@H]3CC[C@H]2C(=O)N(CCCc2ccccc2)C3)cc(OC)c1OC [Example 1]
measured.target: FKBP12 (Homo sapiens, UniProt P62942)
inhibition at 1 µM: 34%
--
molecule: COc1cc(C(=O)C(=O)N2C3CCC2C(=O)N(CCCO)C3)cc(OC)c1OC (stereo not shown) [Example 42]
measured.target: FKBP12 (Homo sapiens, UniProt P62942)
inhibition at 1 µM: 19%
--
molecule: COc1cc(CCCN2CC3CCCC(C2=O)N3C(=O)C(=O)c2cc(OC)c(OC)c(OC)c2)cc(OC)c1OC (stereo not shown) [Example 15]
measured.target: FKBP12 (Homo sapiens, UniProt P62942)
inhibition at 1 µM: 44%
--
molecule: COc1ccc(CCN2CC3CCC(C2=O)N3C(=O)C(=O)c2cc(OC)c(OC)c(OC)c2)cc1OC (stereo not shown) [Example 2]
measured.target: FKBP12 (Homo sapiens, UniProt P62942)
inhibition at 1 µM: 3%
